Tested on: HCT-116
ASSAY NOTES: NCI tumour cell line growth inhibition, 48 h
The source made the active and inactive calls. Rule as the data show it: active = GI50 up to about 1.1 µM and inactive = higher.
A correct response names exactly one class from active, inactive

Reference set (3 entries):
>  <MOLECULE>
Cc1ccc(S(=O)OC2c3ccccc3Cc3ccccc32)cc1 (stereo unspecified)

>  <GROUP LABEL>
inactive

$$$$
>  <MOLECULE>
CCNC(=O)O/N=C1/C=C2CC[C@@H]3C(CC[C@@]4(C)C3CC[C@@H]4OC(=O)NCC)[C@@]2(C)CC1 (stereo partly specified)

>  <GROUP LABEL>
inactive

$$$$
>  <MOLECULE>
C=CCC1[C@@H](C(C)(C)C(C(C)=O)C(=O)C(=O)OC)OC(C(C)(C)C)N1C(=O)OC (stereo partly specified)

>  <GROUP LABEL>
inactive

$$$$

-- ask Please share the test call associated with CC1CC2OC(=O)C3CC(O)CC(=C23)[C@@]12C[C@@H](c1ccoc1)OC2=O (stereo partly specified) .
-- reply inactive

-- ask Please share the test call associated with CC(C)c1cccc(C(C)C)c1NC(=O)C(=O)C1SC(=S)NC1=O (stereo unspecified) .
-- reply inactive

====

Test system: TK-10
ASSAY NOTES: NCI tumour cell line growth inhibition, 48 h
Activity calls are given as the source filed them. No stated cut-off is given here; in the data, active = GI50 up to about 1.1 µM and inactive = higher.
Attribute: GI50

Worked examples follow.
>  <QUERY SMILES>
COc1ccc(O)c(/C=N/CCC/N=C/c2cc(OC)ccc2O)c1

>  <VALUE OBSERVED>
34.9 µM (inactive)

$$$$
>  <QUERY SMILES>
O=C(Nc1nc(C23CC4CC(CC(C4)C2)C3)cs1)c1cc2cc([N+](=O)[O-])ccc2oc1=O

>  <VALUE OBSERVED>
> 100 µM (inactive)

$$$$

-- ask Find the recorded GI50 belonging to `CC(=O)OCCOCNC(=S)N/N=C/c1ccc2ccccc2n1` and report it.
-- reply 69 µM (inactive)

-- ask Find the recorded GI50 belonging to `N#C/C(=C\c1ccccc1)C(=O)Nc1nnc(-c2ccccc2)o1` and report it.
-- reply > 100 µM (inactive)

-- ask Find the recorded GI50 belonging to `Nc1nc(SCC(=O)O)nc(O)c1N` and report it.
-- reply > 100 µM (inactive)

-- ask Find the recorded GI50 belonging to `Cn1c(=O)c2nc(-c3ccc(Cl)cc3)oc2n(C)c1=O` and report it.
-- reply > 100 µM (inactive)

-- ask Find the recorded GI50 belonging to `C[P+]1(c2ccccc2)CCCCC1` and report it.
-- reply > 100 µM (inactive)

====

Tested on: K562
ASSAY NOTES: NCI tumour cell line growth inhibition, 48 h
Calls of active or inactive are those of the source. Rule as the data show it: active = GI50 up to about 1.1 µM and inactive = higher.
A correct response names exactly one class from Y = active, N = inactive

Reference set (5 entries):
>  <COMPOUND>
CC(=O)Nc1ccccc1S(=O)(=O)c1c(-c2c(C)c(Cl)c(C)c(Cl)c2C)noc1C

>  <GROUP LABEL>
N

$$$$
>  <COMPOUND>
COc1cc2c(c(OC)c1OC)-c1ccc(OC)c(=O)cc1[C@@H](N(C)C=O)CC2

>  <GROUP LABEL>
Y

$$$$
>  <COMPOUND>
O=c1[nH]cc(COCC(F)(F)C(F)(F)C(F)(F)C(F)F)c(=O)[nH]1

>  <GROUP LABEL>
N

$$$$
>  <COMPOUND>
CO/N=C(\C)c1cccc(Nc2nc3ccccc3c3occc23)c1

>  <GROUP LABEL>
N

$$$$
>  <COMPOUND>
CCOC(=O)C1(Cc2ccc3c(c2)CCC3)Cc2cc3c(cc2C1)CCC3

>  <GROUP LABEL>
N

$$$$

-- ask Please share the test call associated with CO[C@@H]1C[C@H](OC(N)=O)[C@@H]2C=C[C@@H]3/C=C(C)/C=C/[C@@H](C)[C@H](/C(C)=C/[C@@H](C)NC(C)=O)OC(=O)/C=C/C=C(C)\C=C\[C@]3(C)[C@@H]2C1 [SUPERSTOLIDE B] .
-- reply Y
